This section presents compounds with their documented IC50 values.
# target: Rac GTPase-activating protein 1 (Homo sapiens)
# Sequence (Q9H0H5 whole entry): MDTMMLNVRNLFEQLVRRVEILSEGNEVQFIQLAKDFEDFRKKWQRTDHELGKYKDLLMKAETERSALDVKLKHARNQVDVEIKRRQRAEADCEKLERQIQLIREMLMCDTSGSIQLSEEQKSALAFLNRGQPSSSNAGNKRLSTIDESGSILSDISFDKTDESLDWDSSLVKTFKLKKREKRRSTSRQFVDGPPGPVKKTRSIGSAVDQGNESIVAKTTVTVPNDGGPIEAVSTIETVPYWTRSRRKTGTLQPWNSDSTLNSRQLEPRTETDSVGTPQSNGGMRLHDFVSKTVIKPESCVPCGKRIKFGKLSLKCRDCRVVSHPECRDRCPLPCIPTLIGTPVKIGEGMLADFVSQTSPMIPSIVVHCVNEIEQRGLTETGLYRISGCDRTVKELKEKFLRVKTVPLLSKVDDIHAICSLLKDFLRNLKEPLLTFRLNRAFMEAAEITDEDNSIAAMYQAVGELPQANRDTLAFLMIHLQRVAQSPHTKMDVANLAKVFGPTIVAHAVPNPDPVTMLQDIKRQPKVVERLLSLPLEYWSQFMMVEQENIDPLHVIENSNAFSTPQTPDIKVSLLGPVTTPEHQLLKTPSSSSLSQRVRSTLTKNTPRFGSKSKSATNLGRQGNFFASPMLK
# experiment description: MgcRacGAP GTPase-activating activity inhibitors, confirmation, biochemical, ADP Hunter fluorescence, primary and confirmatory (AID 624330)
# Type: functional
Activity calls are given as the source filed them.

The following compounds have reported results that may help.
entry smiles	IC50
CCc1ccc(OCCOCCN2CCN(C)CC2)cc1	89.4 µM (active)
COc1ccc(CN2CCN(Cc3cccc(F)c3)CC2)cc1OC	83 µM (active)
COc1cc(/C=N/NC(=O)c2ccc(-n3cccc3)cc2)ccc1O	23.9 µM (active)

Task item: What does the data say about its IC50? Entry: COc1ccc(NCCC#N)cc1
Reply: 79.1 µM (active)

Task item: What does the data say about its IC50? Entry: Cc1cc(Br)cc(/C=N/c2ccc(N3CCOCC3)cc2)c1O
Reply: 14.6 µM (active)

Task item: What does the data say about its IC50? Entry: COc1cccc(C(=O)N2CCN(C3CCN(Cc4ccccc4)CC3)CC2)c1OC
Reply: 120 µM (active)

Task item: What does the data say about its IC50? Entry: CCCCN(CC)CCNC(=O)CCC(=O)Nc1ccc2nc(N3CCN(C)CC3)cc(C)c2c1
Reply: 164 µM (active)

Task item: What does the data say about its IC50? Entry: Sc1nnc(-c2cccs2)n1/N=C/c1cccs1
Reply: 126 µM (active)

Task item: What does the data say about its IC50? Entry: COc1ccccc1OCCCCCCN1CCOCC1
Reply: 184 µM (active)

Task item: What does the data say about its IC50? Entry: COc1ccc(/C=N/c2ccc3[nH]ncc3c2)c(O)c1
Reply: 35.3 µM (active)

Task item: What does the data say about its IC50? Entry: COc1cc(/C=N/NC(=O)c2cccc(NC(=O)c3ccccc3C)c2)ccc1O
Reply: 35.9 µM (active)

Task item: What does the data say about its IC50? Entry: COc1cc(/C=N/NC(=O)CCc2nnc(O)nc2O)ccc1O
Reply: 32.5 µM (active)

###

# experiment description: inhibitors of firefly luciferase expression or activity, dose response, H4 neuroglioma cells, luminescence (AID 1990)
# Assay type: functional, cell-based
Calls of active or inactive are those of the source.
This section presents compounds with their documented EC50 values.

The following compounds have reported results that may help.
compound	EC50
COc1ccc(/C=C/C(=O)Nc2ccc(-n3nncc3-c3ccc(OC)c(OC)c3)cc2)cc1OC	23.4 µM (active)
Cc1cc(=O)n2c(c1C#N)SC1CCCCC12O (centres undefined)	> 120 µM (not active)
O=C(Nc1nn[nH]n1)c1cccc([N+](=O)[O-])c1	> 120 µM (not active)

Here is another compound to look at.
Task item: What does the data say about its EC50? Entry: NCCCn1c(C(=O)c2cc(Cl)c(N)c(Cl)c2)c2ccc([N+](=O)[O-])cc2[n+]1[O-]
Reply: 5.24 µM (active)

###

# target: RNA-binding protein pos-1 (Caenorhabditis elegans, UniProt G5EF15)
# Sequence (G5EF15 whole entry): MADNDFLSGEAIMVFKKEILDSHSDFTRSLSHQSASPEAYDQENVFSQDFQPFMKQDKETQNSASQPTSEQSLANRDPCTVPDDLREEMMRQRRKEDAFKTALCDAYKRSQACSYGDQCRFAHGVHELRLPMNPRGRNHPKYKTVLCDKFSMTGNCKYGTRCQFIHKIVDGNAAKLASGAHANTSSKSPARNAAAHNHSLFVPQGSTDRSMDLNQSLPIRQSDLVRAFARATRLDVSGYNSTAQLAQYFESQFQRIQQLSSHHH
# experiment description: inhibitors of POS-1/mex-3 RNA binding, dose response, biochemical, fluorescence polarization (AID 1964);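 note: purified POS-1 fused to maltose binding protein made in E. coli; potency of compounds blocking POS-1 binding to fluorescent RNA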
Calls of active or inactive are those of the source.
This section presents molecules with their documented EC50 values.

molecule	endpoint result
COC1(OC)N=C(N)C2(C#N)C(c3ccc4c(c3)OCO4)C12C#N (centres undefined)	59.9 µM (active)
CCCSc1nnc(N2C(=O)C(O)=C(C(=O)c3ccco3)C2c2ccccc2F)s1 (centres undefined)	> 300 µM (inconclusive)
Oc1ccc(C[C@H]2NCCc3cc(O)c(O)cc32)cc1O	6.36 µM (active)

Task item: What does the data say about its EC50? Entry: COc1ccc(N/C(=C(/C(Cl)=C(Cl)Cl)[N+](=O)[O-])n2nnc3ccccc32)cc1
Reply: 88.5 µM (active)

Task item: What does the data say about its EC50? Entry: CCCCCCCCOc1ccc(C2OC34CCCCC3C(C#N)(C#N)C2(C#N)C(=N)O4)cc1 (centres undefined)
Reply: 13 µM (active)

Task item: What does the data say about its EC50? Entry: Cc1cccc(-c2c3c(=O)n(C)c(=O)n(C)c3c3cccnn23)c1
Reply: 83.8 µM (active)

Task item: What does the data say about its EC50? Entry: CCn1cc(C=C2C(=O)NC(=O)NC2=O)c2ccccc21
Reply: 28.7 µM (inconclusive)

Task item: What does the data say about its EC50? Entry: COc1ccc(-c2c[nH]nc2-c2ccc(OCC(=O)NN)cc2O)cc1OC
Reply: > 300 µM (not active)

Task item: What does the data say about its EC50? Entry: O=C(/C=C/c1ccc(OCCCF)cc1)Nc1ccnc(-c2cccnc2)n1
Reply: 22.8 µM (active)

Cited source: ChEMBL document CHEMBL1201862
